Tested on: HCT-116
Assay: NCI tumour cell line growth inhibition, 48 h
Active and inactive are the calls of the source. Cut-off read from the data, not from the text of the source: active = GI50 up to about 1.1 µM and inactive = higher.

>  <COMPOUND>
O=C1C(Cl)C(c2ccccc2Cl)N1n1cnc2ccccc2c1=O (stereo unspecified)

>  <GI50>
36.1 µM (inactive)

$$$$
>  <COMPOUND>
Clc1ccc(/C=N/C23CC4CC(CC(C4)C2)C3)c(Cl)c1

>  <GI50>
> 10 µM (inactive)

$$$$
>  <COMPOUND>
COC(=O)[C@]1(C)CCC[C@@]2(C)C1CCC1=CC3(C(C)C)CCC12OO3 (stereo partly specified)

>  <GI50>
42 µM (inactive)

$$$$
>  <COMPOUND>
O=[N+]([O-])c1ccc(N/N=C2/CC3=C2CCCCCCCCCC3)c([N+](=O)[O-])c1

>  <GI50>
> 100 µM (inactive)

$$$$
>  <COMPOUND>
CCCCCCc1cc2cc(-c3csc(-c4ccc(OC)cc4)n3)c(=O)oc2cc1O

>  <GI50>
7.19 µM (inactive)

$$$$
>  <COMPOUND>
CN(C)CC/C(=N\Nc1ccc(Cl)c(Cl)c1)c1ccccc1

>  <GI50>
1.73 µM (inactive)

$$$$
>  <COMPOUND>
NC1C(O)C(O)C(CO)OC1n1cc(F)c(=O)[nH]c1=O (stereo unspecified)

>  <GI50>
> 100 µM (inactive)

$$$$
>  <COMPOUND>
S=c1nc(N2CCCCC2)ss1

>  <GI50>
17.7 µM (inactive)

$$$$
>  <COMPOUND>
Nc1nc(CCc2n[nH]c(N)n2)n[nH]1

>  <GI50>
> 100 µM (inactive)

$$$$
>  <COMPOUND>
CC(=O)Oc1cc(/C=C/c2ccc(O)cc2)cc(OC(C)=O)c1

>  <GI50>
35.6 µM (inactive)

$$$$
>  <COMPOUND>
Oc1ccc(C(=C(Br)c2ccccc2)c2ccc(O)cc2)cc1

>  <GI50>
4.25 µM (inactive)

$$$$

Entry source: ChEMBL document CHEMBL1201862
